Tested on: P. falciparum stage V gametocytes
Set-up: BacTiter-Glo ATP luminescence viability of purified stage V gametocytes in 384-well plates, per cent inhibition versus DMSO
Settings: 48 h, 5 µM; inhibitor
The whole screen tested about 13,000 compounds, of which about 3,200 (25%) showed an effect of 50% or more. The list shows a part of the results.
Binary classification by % Inhibition, with 30% as an inclusive lower bound for Y; all other cases are N.

Prompt line: Quick check: does N#Cc1ccc(CN2CCCN(c3ccc(NC(=O)c4ccc(F)cc4)cc3)CC2)cc1 have % Inhibition greater than or equal to 30%?
Response line: N

Prompt line: Quick check: does O=c1ccc2ccc(O)c(O)c2o1 have % Inhibition greater than or equal to 30%?
Response line: N

Prompt line: Quick check: does CCOc1ccc(C(=O)Nc2cc3c(c(C(F)(F)F)c2)CCNC3)cc1Cl have % Inhibition greater than or equal to 30%?
Response line: N

Prompt line: Quick check: does COc1c(Br)cc(Br)cc1C(C)=O have % Inhibition greater than or equal to 30%?
Response line: N

Prompt line: Quick check: does COc1cc2c(cc1NC(=O)CN1CCN(C(=O)c3ccco3)CC1)oc1ccccc12 have % Inhibition greater than or equal to 30%?
Response line: Y

Prompt line: Quick check: does O=C(/C=C/c1c[nH]c2ccccc12)NCCCCCN1CCC(c2c[nH]c3ccccc23)CC1 have % Inhibition greater than or equal to 30%?
Response line: N

Prompt line: Quick check: does O=C(/C=C/c1ccccc1O)NCCCCCN1CCC(c2c[nH]c3ccccc23)CC1 have % Inhibition greater than or equal to 30%?
Response line: Y

Prompt line: Quick check: does COc1cc(C(=O)N2CCOC(CCN3CCC(Cc4ccc(F)cc4)CC3)(c3ccc(Cl)c(Cl)c3)C2)cc(OC)c1OC (centres unmarked) have % Inhibition greater than or equal to 30%?
Response line: N
